assay system: MAGL (Homo sapiens, UniProt Q99685)
protocol summary: 2-AG assay: MAGL inhibitory activity by hydrolysis of 2-arachidonoylglycerol to arachidonic acid, followed by mass spectrometry
Type: biochemical
study conditions: 15 min preincubation, 30 min reaction at RT, 8 μM 2-arachidonoylglycerol
pIC50: −log10 of the molar value.
measured property: pIC50

O=C1COCC2(CN(C(=O)N3CC4(CC(Cc5cc(F)cc(C(F)(F)F)c5)C4)C3)C2)N1 [Example 142] | 9.35
N=[S@@](=O)(c1cccc(CC2CC3(C2)CN(C(=O)N2CC4(CCC(=O)N4)C2)C3)c1)C(F)(F)F [Example 289] | 9.36
O=C1NC2(CO1)CN(C(=O)N1CC3(CC(Oc4ccc(C(F)(F)F)nn4)C3)C1)C2 [Example 76] | 8.08
O=C1NC2(CO1)CN(C(=O)N1CC3(CCC(Oc4cnc(C(F)(F)F)cn4)CC3)C1)C2 [Example 69] | 9.08
O=C1CCC2(CN(C(=O)N3CC4(CC[C@H](Cc5cccc(S(=O)(=O)C(F)(F)F)c5)C4)C3)C2)N1 [Example 223] | 9.02

P. O=C1NC2(CO1)CN(C(=O)N1CC3(CC(c4ccc(S(=O)(=O)C(F)(F)F)cc4)C3)C1)C2 [Example 48]
Q. Cc1sc(CN2CC3(C2)CN(C(=O)N2CC4(CCC(=O)N4)C2)C3)nc1C(F)(F)F [Example 341]
Lower value of pIC50 belongs to which: P or Q ? Indicate your choice by writing its label. Q
(Q: 6.14, P: 9.82)

* * *

assay system: MAGL (Homo sapiens, UniProt Q99685)
Sequence (Q99685 1-303): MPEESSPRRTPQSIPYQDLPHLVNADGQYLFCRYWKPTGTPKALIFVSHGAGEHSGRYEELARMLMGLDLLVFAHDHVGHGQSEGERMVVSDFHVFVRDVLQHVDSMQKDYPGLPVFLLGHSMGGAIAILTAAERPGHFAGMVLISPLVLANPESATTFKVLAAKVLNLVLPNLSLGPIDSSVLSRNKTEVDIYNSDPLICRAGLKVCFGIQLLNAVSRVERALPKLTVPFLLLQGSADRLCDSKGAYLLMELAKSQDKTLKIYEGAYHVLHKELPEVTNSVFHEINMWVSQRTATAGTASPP
protocol summary: 2-AG assay: MAGL inhibitory activity by hydrolysis of 2-arachidonoylglycerol to arachidonic acid, followed by mass spectrometry
Assay type: biochemical
study conditions: 15 min preincubation, 30 min reaction at RT, 8 μM 2-arachidonoylglycerol
pIC50: −log10 of the molar value.
measured property: pIC50

1. O=C1CCC2(CN(C(=O)N3CC4(CCN(S(=O)(=O)C56CC(C(F)(F)F)(C5)C6)CC4)C3)C2)N1
2. O=C1NC2(CO1)CN(C(=O)N1CC3(CC(Cc4cnc(C(F)(F)F)cn4)C3)C1)C2
Higher pIC50 between 1 and 2 ? Indicate your choice by writing its label. 2
(2: 8.94, 1: 6.58)

* * *

assay system: MAGL (Homo sapiens, UniProt Q99685)
protocol summary: 2-AG assay: MAGL inhibitory activity by hydrolysis of 2-arachidonoylglycerol to arachidonic acid, followed by mass spectrometry
Assay type: biochemical
study conditions: 15 min preincubation, 30 min reaction at RT, 8 μM 2-arachidonoylglycerol
pIC50: −log10 of the molar value.
measured property: pIC50

Examples with answers:
Cc1nn(C)c(Cl)c1CN1CC2(C1)CN(C(=O)N1CC3(COC(=O)N3)C1)C2 [Example 305] | 7.68
O=C1NC2(CO1)CN(C(=O)N1CC3(CN(Cc4ccc(S(=O)(=O)C(F)(F)F)cc4)C3)C1)C2 [Example 85] | 9.03
O=C1COCC2(CN(C(=O)N3CC4(CCC(OCC5(C(F)(F)F)CC5)CC4)C3)C2)N1 [Example 88] | 7.87

A. CS(=O)(=O)c1cc(F)ccc1CC1CC2(C1)CN(C(=O)N1CC3(COC(=O)N3)C1)C2 [Example 15]
B. CS(=O)(=O)c1ccc(CN2CC3(C2)CN(C(=O)N2CC4(COC(=O)N4)C2)C3)cc1 [Example 164]
Lower value of pIC50 belongs to which: A or B ? Indicate your choice by writing its label. B

I. CS(=O)(=O)c1cc(F)cc(CC2CC3(C2)CN(C(=O)N2CC4(COC(=O)N4)C2)C3)c1 [Example 30]
II. O=C1NC2(CO1)CN(C(=O)N1CC3(C1)CN(S(=O)(=O)c1cncc(C(F)(F)F)c1)C3)C2 [Example 196]
Lower value of pIC50 belongs to which: I or II ? Indicate your choice by writing its label. II

1. O=C1NC2(CO1)CN(C(=O)N1CC3(CCC(Cc4ccc(OC(F)F)nc4)CC3)C1)C2 [Example 105]
2. O=C1COCC2(CN(C(=O)N3CC4(CC(Cn5cc(C(F)(F)F)cn5)C4)C3)C2)N1 [Example 230]
Higher pIC50 between 1 and 2 ? Indicate your choice by writing its label. 1

A. O=C1NC2(CCO1)CN(C(=O)N1CCC3(CC1)CN(Cc1ccc(C(F)(F)F)cc1F)C3)C2 [Example 91]
B. O=C1CCC2(CN(C(=O)N3CC4(CC(S(=O)(=O)c5cccc(OC(F)(F)F)c5)C4)C3)C2)N1 [Example 280]
C. O=C1NCC2(CN(C(=O)N3CC4(CC(Cc5ccc(C(F)(F)F)nc5)C4)C3)C2)N1 [Example 42]
D. O=C1NC2(CO1)CN(C(=O)N1CC3(CC(Cc4ccc(C(F)(F)F)nc4)C3)C1)C2 [Example 14]
Put the molecules in ascending order of pIC50. Thanks in advance for listing the labels in the requested order. A, B, C, D
(A: 6.20, B: 6.71, C: 7.27, D: 9.08)

* * *

assay system: MAGL (Homo sapiens, UniProt Q99685)
protocol summary: 2-AG assay: MAGL inhibitory activity by hydrolysis of 2-arachidonoylglycerol to arachidonic acid, followed by mass spectrometry
Type: biochemical
study conditions: 15 min preincubation, 30 min reaction at RT, 8 μM 2-arachidonoylglycerol
measured property: IC50 (µM)

Examples with answers:
O=C1NC2(CO1)CN(C(=O)N1CC3(CC(c4cncc(F)c4)C3)C1)C2 | 0.0213
O=C1CCC2(CN(C(=O)N3CC4(CN(Cc5ccc[nH]c5=O)C4)C3)C2)N1 | 1.85
O=C1CCCC2(CN(C(=O)N3CC4(CC(Cn5cc(C(F)(F)F)cn5)C4)C3)C2)N1 | 0.54
O=C1COCC2(CN(C(=O)N3CC4(CCN(Cc5cccc(S(=O)(=O)C(F)(F)F)c5)C4)C3)C2)N1 | 0.0807
O=C1COCC2(CN(C(=O)N3CC4(CCC(Cc5ccc(C(F)(F)F)cn5)CC4)C3)C2)N1 | 0.00642

P. Cn1nc(CC2CC3(C2)CN(C(=O)N2CC4(CCC(=O)N4)C2)C3)cc1C(F)(F)F
Q. N=S(=O)(c1cccc(OC(F)(F)F)c1)C1CC2(C1)CN(C(=O)N1CC3(CCC(=O)N3)C1)C2 (centres unmarked)
R. O=C1CCC2(CN(C(=O)N3CC4(CN(Cc5ccc(C(F)(F)F)cc5F)C4)C3)C2)N1
List items by IC50 in falling order. Thanks in advance for listing the labels in the requested order. Q, R, P

* * *

assay system: MAGL (Homo sapiens)
Sequence (Q99685 1-303): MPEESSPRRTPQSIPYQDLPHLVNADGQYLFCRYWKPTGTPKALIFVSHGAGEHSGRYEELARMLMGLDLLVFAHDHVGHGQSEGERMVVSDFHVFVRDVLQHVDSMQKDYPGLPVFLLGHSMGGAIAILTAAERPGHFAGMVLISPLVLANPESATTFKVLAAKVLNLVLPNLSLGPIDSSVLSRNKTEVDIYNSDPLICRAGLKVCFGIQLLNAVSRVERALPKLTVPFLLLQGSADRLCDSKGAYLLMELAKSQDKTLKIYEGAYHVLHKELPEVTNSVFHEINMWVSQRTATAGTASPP
protocol summary: 2-AG assay: MAGL inhibitory activity by hydrolysis of 2-arachidonoylglycerol to arachidonic acid, followed by mass spectrometry
Format: biochemical
study conditions: 15 min preincubation, 30 min reaction at RT, 8 μM 2-arachidonoylglycerol
pIC50: −log10 of the molar value.
measured property: pIC50

Cn1nc(CC2CC3(C2)CN(C(=O)N2CC4(CCCC(=O)N4)C2)C3)cc1C(F)(F)F | 6.98
O=C1COCC2(CN(C(=O)N3CC4(CN(Cc5ccc(S(=O)(=O)C(F)(F)F)cc5F)C4)C3)C2)N1 | 7.23
O=C1COCC2(CN(C(=O)N3CC4(CN(Cc5ccc(S(=O)(=O)C(F)(F)F)cc5)C4)C3)C2)N1 | 7.11
N#Cc1cc(C(F)(F)F)ncc1O[C@H]1CCC2(C1)CN(C(=O)N1CC3(COC(=O)N3)C1)C2 | 8.20
O=C1NCC2(CN(C(=O)N3CC4(CC(Cc5ccc(F)cc5F)C4)C3)C2)N1 | 8.63
O=C1NCC2(CN(C(=O)N3CC4(CC(Cc5ccc(F)cc5C(F)(F)F)C4)C3)C2)N1 | 8.96
O=C1NC2(CO1)CN(C(=O)N1CC3(CCC(Oc4cnc(C(F)(F)F)cn4)C3)C1)C2 (single isomer, unassigned) [Example 104] | 8.55
O=C1CCC2(CN(C(=O)N3CC4(CC(Cn5cnc(C(F)(F)F)n5)C4)C3)C2)N1 | 7.52
CS(=O)(=O)c1ccc(Cl)cc1OC1CCC2(CC1)CN(C(=O)N1CC3(COC(=O)N3)C1)C2 | 8.36
O=C1NC2(CCO1)CN(C(=O)N1CC3(CC(Cc4cnc(C(F)(F)F)cn4)C3)C1)C2 | 6.19

1. CS(=O)(=O)c1cccc(CN2CC3(C2)CN(C(=O)N2CC4(COC(=O)N4)C2)C3)c1
2. O=C1NC2(CO1)CN(C(=O)N1CC3(CC(Nc4ccc(C(F)(F)F)nn4)C3)C1)C2
Lower value of pIC50 belongs to which: 1 or 2 ? Indicate your choice by writing its label. 1
